Test system: Respiratory Syncytial Virus (RSV) long strain
Method description: microbe, parasite or virus in culture
Type: cell-based
Experimental setup: human respiratory syncytial virus, HEp-2, 120 h, read-out: 50% effective concentration (EC50), HEp-2 cells infected with RSV long strain, 5 days, CCK-8 readout; Tables A and B list compounds by EC50 band
Entries annotated with measured EC50

Guide cases for EC50, answers given:
| Molecule | Test target | Assay endpoint | Value measured |
| --- | --- | --- | --- |
| CC(C)(N)c1cc(-c2ccc(F)c(Cl)c2)nc(C(O)(CNC(=O)c2cncs2)C(F)(F)F)c1 (stereo not shown) | Respiratory Syncytial Virus (RSV) long strain | EC50 | 1000 to 50000 nM |
| COc1cc(C(=O)NCC(O)(c2cc(C(C)(N)CO)cc(-c3ccc(F)c(Cl)c3)n2)C(F)(F)F)ccc1OC1CC1 (stereo not shown) | Respiratory Syncytial Virus (RSV) long strain | EC50 | < 1000 nM |
| COc1cc(C(=O)NCC(C)(O)c2ccc(OC)c(-c3ccc(F)c(Br)c3)n2)ccc1OCCO (stereo not shown) | Respiratory Syncytial Virus (RSV) long strain | EC50 | < 1000 nM |

For the molecule "COc1cc(C(=O)NC[C@@](O)(c2cc(C(C)(C)N)cc(-c3ccc(F)c(Cl)c3)n2)C(F)(F)F)ccc1OCC(N)=O" , give its reported EC50.
< 1000 nM

====

Tested on: RSV replicon
Method description: microbe, parasite or virus in culture
Format: cell-based
Experimental setup: human respiratory syncytial virus, read-out: EC50, the concentration of the drug required for reducing RSV replicon RNA by 50%
Assay endpoint: EC50

Answered examples (2):
| Molecule | EC50 |
| --- | --- |
| CCC1(N)COc2c1cc(C(O)(CNC(=O)c1ccc(OCCO)c(OC)c1)C(F)(F)F)nc2-c1ccc(F)cc1 (stereo not shown) | < 1 µM |
| COc1cc(C(=O)NCC(O)(c2cc(C(C)(C)N)cc(-c3ccc(F)c(Cl)c3)n2)C(F)(F)F)ccc1OCCOC(=O)C(C)C (stereo not shown) | < 1 µM |

Complete the entry with EC50 for COc1cc(C(=O)NCC(O)(c2cc3c(c(-c4ccc(F)c(Cl)c4)n2)OCC3(C)C)C2CC2)ccc1OC1CCNC1=O (stereo not shown)
< 1 µM

Identify measured EC50 corresponding to COc1cc(C(=O)NCC(O)(c2cc3c(c(-c4ccc(F)c(Cl)c4)n2)OCCC3(C)C)C(F)(F)F)ccc1OC1CCNC1=O (stereo not shown)
< 1 µM

Supply measured EC50 of CNC(C)(C)c1cc(-c2ccc(F)c(Cl)c2)nc(C(O)(CNC(=O)c2ccc(OCCO)c(OC)c2)C(F)(F)F)c1 (stereo not shown) in your reply.
< 1 µM

State, in one line, measured EC50 of COc1cc(C(=O)NCC(O)(c2ccc(OC)c(-c3ccc(F)c(Br)c3)n2)C(F)(F)F)ccc1OCC(N)=O (stereo not shown)
< 1 µM

Consider the molecule COc1cc(C(=O)NCC(O)(c2cc(C(C)(C)O)cc(-c3ccc(F)c(Cl)c3)n2)C(F)(F)F)ccc1OC1CC1 (stereo not shown) . State its measured EC50.
< 1 µM

====

Reported IC50 values for a set of molecules
Test target: recombinant RSV complex (Human respiratory syncytial virus A, UniProt P28887)
Sequence (P28887 whole entry): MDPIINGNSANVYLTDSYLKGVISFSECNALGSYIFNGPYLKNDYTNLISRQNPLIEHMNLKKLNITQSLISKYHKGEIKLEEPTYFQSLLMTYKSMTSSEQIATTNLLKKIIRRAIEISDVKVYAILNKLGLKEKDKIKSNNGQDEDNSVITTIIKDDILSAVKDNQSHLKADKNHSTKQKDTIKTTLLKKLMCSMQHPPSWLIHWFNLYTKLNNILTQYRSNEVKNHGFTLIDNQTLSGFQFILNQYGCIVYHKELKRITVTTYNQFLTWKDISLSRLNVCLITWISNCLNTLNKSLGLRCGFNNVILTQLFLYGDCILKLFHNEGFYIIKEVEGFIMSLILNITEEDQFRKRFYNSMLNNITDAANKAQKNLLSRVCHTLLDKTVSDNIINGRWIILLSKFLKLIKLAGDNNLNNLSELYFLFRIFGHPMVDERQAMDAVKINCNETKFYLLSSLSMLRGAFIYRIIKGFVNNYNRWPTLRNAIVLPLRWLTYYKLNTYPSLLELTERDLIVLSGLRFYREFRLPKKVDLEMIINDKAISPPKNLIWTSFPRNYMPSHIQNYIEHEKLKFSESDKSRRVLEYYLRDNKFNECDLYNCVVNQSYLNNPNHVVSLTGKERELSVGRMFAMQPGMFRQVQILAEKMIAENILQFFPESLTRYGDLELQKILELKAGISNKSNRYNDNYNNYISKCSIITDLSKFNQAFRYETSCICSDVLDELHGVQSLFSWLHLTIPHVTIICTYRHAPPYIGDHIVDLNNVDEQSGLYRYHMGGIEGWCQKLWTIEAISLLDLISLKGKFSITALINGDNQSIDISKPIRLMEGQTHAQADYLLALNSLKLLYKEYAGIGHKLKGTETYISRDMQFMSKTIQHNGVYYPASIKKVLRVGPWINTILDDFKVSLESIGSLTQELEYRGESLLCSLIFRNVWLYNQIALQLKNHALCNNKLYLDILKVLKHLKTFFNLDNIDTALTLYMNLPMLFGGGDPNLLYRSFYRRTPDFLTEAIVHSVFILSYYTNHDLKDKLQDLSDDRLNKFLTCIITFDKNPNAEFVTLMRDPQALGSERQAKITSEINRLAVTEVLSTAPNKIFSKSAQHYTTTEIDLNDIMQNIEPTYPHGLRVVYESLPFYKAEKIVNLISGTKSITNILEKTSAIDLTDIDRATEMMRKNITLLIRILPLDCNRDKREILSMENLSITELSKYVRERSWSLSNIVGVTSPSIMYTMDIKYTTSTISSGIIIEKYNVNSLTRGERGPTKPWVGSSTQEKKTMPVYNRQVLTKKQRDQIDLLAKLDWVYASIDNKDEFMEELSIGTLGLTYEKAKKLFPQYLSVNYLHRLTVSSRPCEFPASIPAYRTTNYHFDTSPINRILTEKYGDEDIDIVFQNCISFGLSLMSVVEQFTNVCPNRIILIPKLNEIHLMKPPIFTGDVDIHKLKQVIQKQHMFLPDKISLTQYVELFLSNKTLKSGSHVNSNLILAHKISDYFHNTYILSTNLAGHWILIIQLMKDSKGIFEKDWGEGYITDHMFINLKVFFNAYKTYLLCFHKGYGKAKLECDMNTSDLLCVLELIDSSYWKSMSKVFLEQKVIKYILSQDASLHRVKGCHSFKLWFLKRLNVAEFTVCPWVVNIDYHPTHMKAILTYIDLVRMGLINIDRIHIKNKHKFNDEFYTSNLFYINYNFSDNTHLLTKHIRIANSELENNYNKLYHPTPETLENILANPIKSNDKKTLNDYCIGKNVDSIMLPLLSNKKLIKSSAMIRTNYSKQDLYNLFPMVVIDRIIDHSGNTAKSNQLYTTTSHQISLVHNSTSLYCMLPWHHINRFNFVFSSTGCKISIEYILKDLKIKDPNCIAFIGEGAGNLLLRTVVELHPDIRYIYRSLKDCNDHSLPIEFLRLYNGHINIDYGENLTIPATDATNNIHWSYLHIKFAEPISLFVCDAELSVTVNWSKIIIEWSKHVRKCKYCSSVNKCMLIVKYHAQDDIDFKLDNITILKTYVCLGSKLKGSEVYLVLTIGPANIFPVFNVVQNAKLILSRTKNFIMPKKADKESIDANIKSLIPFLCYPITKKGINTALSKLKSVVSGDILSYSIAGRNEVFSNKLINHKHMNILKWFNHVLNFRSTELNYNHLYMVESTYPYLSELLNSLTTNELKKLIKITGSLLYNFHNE
Sequence (P03421 whole entry, further chain): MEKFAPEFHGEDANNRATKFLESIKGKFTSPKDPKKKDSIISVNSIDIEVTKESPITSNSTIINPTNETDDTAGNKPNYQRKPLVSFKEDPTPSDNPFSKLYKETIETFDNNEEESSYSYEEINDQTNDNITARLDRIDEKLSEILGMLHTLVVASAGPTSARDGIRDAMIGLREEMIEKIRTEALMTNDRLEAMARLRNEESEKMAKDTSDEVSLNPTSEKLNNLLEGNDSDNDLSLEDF
Method description: RSV Polymerase Inhibition Assay
Assay type: biochemical

| Molecule | IC50 |
| --- | --- |
| COc1cc(C(=O)NCC(O)(CN2CCC2)c2ccc(OC)c(-c3ccc(F)c(Cl)c3)n2)ccc1OC1CC1 (stereo not drawn) | < 1 µM |

For the molecule COc1ccc(C(=O)NCC(OC)c2cccc(-c3csc4c(F)cccc34)n2)cc1OC (stereo not drawn) , give its measured IC50 value.
< 10 µM

Specify measured IC50 for COc1ccc(C(O)(CNC(=O)c2ccc3c(c2)[nH]c(=O)n3C)C(F)(F)F)nc1-c1ccc(F)c(Cl)c1 (stereo not drawn) .
< 10 µM

Please give the documented IC50 of COc1cc(C(=O)NCC(O)(Cn2cccn2)c2cc3c(c(-c4ccc(F)c(Cl)c4)n2)OCC3(C)C)ccc1OC1CCNC1=O (stereo not drawn)
< 1 µM

Report measured IC50; entry is COc1cc(C(=O)NCC(O)(c2cc(C(C)(C)N)cc(-c3ccc(F)c(Cl)c3)n2)C(F)(F)F)ccc1OC[C@@H](C)O (stereo partly drawn)
< 1 µM

Input COc1cc(C(=O)NCC(O)(c2cc(C(C)(C)N)cc(-c3ccnc(Cl)c3)n2)C(F)(F)F)ccc1OC1CC1 (stereo not drawn) , output reported IC50.
< 1 µM
